Target: T1, wild-type human IL-2 (human, UniProt P60568 21-153)
T1 construct: also called hIL-2
T1 sequence (P60568 21-153 limits assumed): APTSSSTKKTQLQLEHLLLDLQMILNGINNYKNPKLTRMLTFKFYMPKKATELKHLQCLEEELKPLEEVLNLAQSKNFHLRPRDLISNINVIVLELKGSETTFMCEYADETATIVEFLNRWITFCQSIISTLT
Test: BIACORE
pKd: −log10 of the molar value.
Give measured pKd for each item. Keep answers brief.

In: Consider the binder 9B10 (antibody, V domains shown) VH: QVQLVESGGGVVQPGRSLRLSCAASGFTFSSYAMHWVRQAPGKGLEWVAVIWYDGINKYYADSVKGRFTISRDNSKNTLYLQMNSLRAEDTAVYYCARGSYYDSSGYYFGEDFDYWGQGTLVTVSS VL: DIVMTQTPLSSPVTLGQPASISCRSSHNLLHSDGNTYLSWLQQRPGQPPRLLIYEISNRFSGVPDRFSGSGAGTDFTLKISRVEAEDVGVYYCMQVTQFPTFGGGTKVEIK and give its measured pKd.
Out: ~9.96

In: Field request: pKd | item: 18F3 (antibody, V domains shown) VH: QVQLQESGPGLVKPSQTLSLTCTVSGGSISSGGYYWSWIRQHPGKGLEWIGYIYYSGSTDYNPSLKSRGIISGDTSKNQFSLKLNSVTAADTAVYYCAREGRFGELGSYYFDYWGQGTLVTVSS VL: SYELTQPPSVSVSPGQTARIACSGDALPRKFAYWYQQKSGQAPVLVISEDSRRPSGIPERFSGSSSGTMATLTISGAQVEDEADYYCFSTDSSANHRVFGGGTKLTVL
Out: ~10.30

In: Item 14D7 (antibody, V domains shown) VH: QVQLQESGPGLVKPSQTLSLTCTVSGGSISSGGYYWNWIRQHPGKGLEWIGYIYYSGNTHYNPSLKSRVTISVDTSKNQFSLKLSSVIAADTAVYYCARDWGRDAFDIWGQGTMVTVSS VL: DIQMTQSPSSLSASVGDRVTITCRASQTISSYLNWYQQKPGKAPKVLIYAASSFQSGVPSRFSGSGSGTDFTLTISSLQPEDFATYYCQQSHYIPRTFGQGTKVEIK has what recorded pKd?
Out: ~9.52

In: Bench note: what pKd did 9D6 (antibody, V domains shown) VH: EVQLVQSGAEVKKPGESLKISCKGSGYRFTSYWIGWVRQMPGKGLEWMGIIHPGDSDTRYSPSFQGQVTISADKSISTAYLQWSSLKASDTAIYYCTRQGRSFYYYGMDVWGQGTTVTVSS VL: DIVMTQTPLSLPVTPGEPASISCRSSQSLLDSDEGNTYLDWYLQKPGQSPQLLIYTLSYRASGVPDRFSGTGSDTDFTLKISRVEAEDVGVYYCMQRIEFPLTFGGGTKVEIK show?
Out: ~10.39
